System: A-431
Experiment: Inhibitory effect on phospho-Src/nonphospho after EGF (100 uM) stimulation of A431 cells (21)
Conditions: Homo sapiens
pIC50: −log10 of the molar value.
Listed below: pIC50 values for each entry.

[
  {
    "compound": "CSc1nc(N2CCOCC2)c2cnn(CC(Cl)c3ccccc3)c2n1 (centres undefined)",
    "pIC50": 4.62
  },
  {
    "compound": "CC(C)(C)n1nc(-c2ccc(Cl)cc2)c2c(N)ncnc21",
    "pIC50": 4.77
  },
  {
    "compound": "CCCCNc1nc(SCC)nc2c1cnn2CC(Cl)c1ccccc1 (centres undefined)",
    "pIC50": 4.48
  },
  {
    "compound": "CSc1nc(NCc2ccccc2)c2cnn(CC(Cl)c3ccccc3)c2n1 (centres undefined)",
    "pIC50": 4.68
  }
]

---

Listed below: IC50 values for each entry.
Test system: A-431
Assay: Tested for antiproliferative activity against human A431 cells
Assay type: functional, cell-based

[
  {
    "compound": "C(=C\\n1ncc2c(N3CCOCC3)ncnc21)/c1ccccc1",
    "IC50 (µM)": 59
  },
  {
    "compound": "CSc1nc(NCc2ccccc2)c2cnn(/C=C/c3ccccc3)c2n1",
    "IC50 (µM)": 40
  },
  {
    "compound": "C(=C\\n1ncc2c(N3CCCC3)ncnc21)/c1ccccc1",
    "IC50 (µM)": 63
  },
  {
    "compound": "CCSc1nc(NCc2ccccc2)c2cnn(CC(Cl)c3ccccc3)c2n1 (stereo not drawn)",
    "IC50 (µM)": 124
  },
  {
    "compound": "C(=C\\n1ncc2c(N3CCCCC3)ncnc21)/c1ccccc1",
    "IC50 (µM)": 69
  },
  {
    "compound": "CCCNc1ncnc2c1cnn2/C=C/c1ccccc1",
    "IC50 (µM)": 61
  },
  {
    "compound": "CCCCNc1nc(SC)nc2c1cnn2CC(Cl)c1ccccc1 (stereo not drawn)",
    "IC50 (µM)": 27
  },
  {
    "compound": "CSc1nc(N2CCCCC2)c2cnn(/C=C/c3ccccc3)c2n1",
    "IC50 (µM)": 54
  },
  {
    "compound": "CSc1nc(N2CCOCC2)c2cnn(/C=C/c3ccccc3)c2n1",
    "IC50 (µM)": 36
  },
  {
    "compound": "CCSc1nc(N2CCCCC2)c2cnn(CC(Cl)c3ccccc3)c2n1 (stereo not drawn)",
    "IC50 (µM)": 176
  },
  {
    "compound": "CCCCNc1ncnc2c1cnn2/C=C/c1ccccc1",
    "IC50 (µM)": 91
  },
  {
    "compound": "COc1cc2ncnc(Nc3cccc(Cl)c3)c2cc1OC",
    "IC50 (µM)": 20
  },
  {
    "compound": "CCSc1nc(N2CCOCC2)c2cnn(/C=C/c3ccccc3)c2n1",
    "IC50 (µM)": 50
  }
]

Recorded values, source ChEMBL document CHEMBL1146730.
